protocol_text: inhibition of 3D7 malaria parasite growth – strain 3D7 (AID 2306);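 note: 0% = DMSO wells and 100% = chloroquine plus artemisinin control wells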
setup_conditions: P. falciparum 3D7 erythrocytic growth, LDH absorbance, 72 h; at 2 µM; hits give high values
Classify by measured growth inhibition: Y if it is equal to or exceeds 90%, N if it is smaller.

{"molecule": "c1ccc2[nH]c(-c3ccc(-c4ccc(CN5CCN(CCN6CCOCC6)CC5)cc4)cc3)nc2c1", "answer_label": "Y"}
{"molecule": "CCCC(C)N(Cc1ccc(C(C)(C)C)cc1)C(=O)c1cccc(C#N)c1 (centres undefined)", "answer_label": "N"}
{"molecule": "O=C(/C=C/c1ccccc1Cl)Nc1ccc(Br)c(OCCN2CCN(CCN3CCOCC3)CC2)c1", "answer_label": "Y"}
{"molecule": "COc1ccc2nc(-c3cc(-c4ccc(NC(=O)CN5CCOCC5)cc4)cnc3N)[nH]c2c1", "answer_label": "Y"}
{"molecule": "N#Cc1ccc(CN2CCC(NC(=O)c3ccc(-c4nnc(-c5cccc6ccccc56)o4)cc3)CC2)cc1", "answer_label": "Y"}
{"molecule": "COc1ccc2ccccc2c1C=NNc1ccnc2ccc(F)cc12", "answer_label": "N"}
{"molecule": "CCCNCc1ccc(-c2ccc(CN(Cc3cccs3)C(=O)C3CCN(C)CC3)cc2)nc1", "answer_label": "Y"}
{"molecule": "Cn1c(=O)c2nc(-c3ccc(Cl)cc3)nnc2n(CCCC#N)c1=O", "answer_label": "Y"}

###

Examples of compounds with documented growth inhibition follow.
protocol_text: inhibition of 3D7 malaria parasite growth – strain 3D7 (AID 2306);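 note: 0% = DMSO wells and 100% = chloroquine plus artemisinin control wells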
setup_conditions: P. falciparum 3D7 erythrocytic growth, LDH absorbance, 72 h; at 2 µM; hits give high values
property_measured: growth inhibition (%)

{"compound": "Oc1cccc(Nc2nc(NCc3ccco3)c3ccccc3n2)c1", "observed": 103}
{"compound": "Cc1cccc2[nH]c(-c3cccc(-c4cccc(CN5CCN(c6ccc(C#N)cn6)CC5)c4)c3)nc12", "observed": 94}
{"compound": "OC(CNc1ccnc(Nc2cccc(Cl)c2)n1)c1ccc(C(F)(F)F)cc1 (centres undefined)", "observed": 101}
{"compound": "COc1ccccc1OCCN(CC(O)COc1cccc2[nH]c3ccccc3c12)CC(O)COc1cccc2[nH]c3ccccc3c12 (centres undefined)", "observed": 97}
{"compound": "Fc1cc(CN2CCCC2)ccc1OCCCN1CCN(c2cccc(Cl)c2Cl)CC1", "observed": 82}
{"compound": "CCOc1cccc(C(=O)Nc2ccc(-c3nc4ccccc4[nH]3)cc2)c1", "observed": 96}
{"compound": "COCCN1CCC(C(=O)NCC(C)(C)c2nc(-c3ccc(Br)c(O)c3)c(-c3ccncc3)[nH]2)CC1", "observed": 99}
{"compound": "O=C(COc1cnc2ccccc2n1)Nc1ccccc1Sc1ccc(Cl)cc1", "observed": 100}
{"compound": "CCCCCCOc1ccc(N2C(N)=NC(N)=NC2(C)C)cc1", "observed": 98}
{"compound": "O=C(NCc1ccc(C(=O)N2CCC(N3CCCCC3)CC2)cc1)c1cc(-c2cccc(C(F)(F)F)c2)ccc1O", "observed": 100}
{"compound": "COc1ccc(S(=O)(=O)NC2CCN(c3ccc(C(F)(F)F)cc3NC(=O)OCC(C)C)CC2)cc1", "observed": 85}
{"compound": "FC(F)(F)c1cc(CNCCCNc2nc3ccncc3[nH]2)ccc1Cl", "observed": 99}
{"compound": "NC(=NCc1ccc(O)cc1)Nc1nc(-c2ccc(OCCCn3ccnc3)cc2)cs1", "observed": 102}
{"compound": "NC(N)=NCCCN(Cc1ccccc1)c1ccc(Cl)cc1", "observed": 100}
{"compound": "CCCCc1cc(N2CCC(NC(C)=O)C2)nc(Nc2ccc(C)cc2)n1 (centres undefined)", "observed": 95}
{"compound": "COc1ccccc1C1CCN(CCCCNC(=O)c2ccc(NC(=O)c3ccc(Cl)cc3)cc2)CC1", "observed": 95}
{"compound": "COc1ccccc1N(C)CCNc1cc(C)nc(Nc2ccc(C)cc2)n1", "observed": 93}
{"compound": "O=C(OCC1CCN(Cc2ccccc2)C1)c1ccc(Cl)cc1 (centres undefined)", "observed": 100}
{"compound": "CC(=Nc1ccc(Cl)c(Cl)c1)N(C)C", "observed": 98}
{"compound": "COc1ccc(N2CCN(CCc3ccc(NC(=O)c4ccc([N+](=O)[O-])cc4)cc3)CC2)c(OC)c1", "observed": 83}
{"compound": "Cc1cc(C)nc(-n2[nH]c(C)c(Cc3ccc(C(C)(C)C)cc3)c2=O)n1", "observed": 88}
{"compound": "CC1CCCN(Cc2c(O)ccc3c(=O)c(-c4nc5ccccc5s4)c(N)oc23)C1 (centres undefined)", "observed": 100}
{"compound": "Nc1nc(N)c2cc(NC(=O)c3ccc(Cl)c(Cl)c3)ccc2n1", "observed": 100}
{"compound": "CC(CON1C(N)=NC(N)=NC1(C)C)Cc1ccc(Cl)cc1Cl (centres undefined)", "observed": 92}
{"compound": "Cn1c(NC(=O)C2CCCN(C(=O)c3ccc(O)c(-c4ccc(Cl)c(Cl)c4)c3)C2)nc2ccccc21 (centres undefined)", "observed": 98}
{"compound": "CCCNC[C@@H](O)[C@H](Cc1ccccc1)NC(=O)c1cc(NCC)cc(N2CCCCS2(=O)=O)c1", "observed": 97}
{"compound": "CC(C)Cc1cn(-c2nc(-c3nc4ccccc4[nH]3)cs2)c2ccncc12", "observed": 102}
{"compound": "CCn1c(Cc2ccccc2)nnc1Sc1ccc([N+](=O)[O-])c(C#N)c1", "observed": 93}
{"compound": "Cc1cccc(Cn2c(Cc3ccccc3)nnc2Sc2ccc([N+](=O)[O-])c(C#N)c2)c1", "observed": 91}
{"compound": "N#Cc1ccc(/C=C/C(=O)NCCCCCN2CCN(C(=O)Nc3ccc(Cl)c(C(F)(F)F)c3)CC2)cc1", "observed": 94}
{"compound": "CCNc1cc(C(=O)N[C@@H](Cc2ccccc2)[C@H](O)CNC(CC)c2cccc(Cl)c2)cc(N2CCCC2=O)c1 (some centres undefined)", "observed": 97}
{"compound": "c1cn(CCCNc2ncc(-c3ccsc3)c(-c3nccs3)n2)cn1", "observed": 94}
{"compound": "CC(C)CNC(=O)c1ccnc(-c2ccc(CNCCCc3ccccc3)cc2)c1", "observed": 99}
{"compound": "CC(CN(C)C)C(=O)Nc1cccc(-c2ccc(-c3nc4ccc(F)cc4[nH]3)s2)c1 (centres undefined)", "observed": 100}
{"compound": "CCN(CC)CCCC(C)Nc1c(-c2ccc(OC)cc2)cnc2ccccc12 (centres undefined)", "observed": 93}
{"compound": "Cc1cc(N2CCOCC2)nc2ccc(NC(=O)c3cccc([N+](=O)[O-])c3)cc12", "observed": 97}
{"compound": "Cc1ccc(C(c2nnnn2C2CCCC2)N(Cc2ccco2)Cc2ccccc2Cl)cc1 (centres undefined)", "observed": 85}
{"compound": "CCOC(=O)c1ccc(NC(=O)N[C@@H](Cc2ccccc2)C(=O)NC2CCN(Cc3ccc(O)c(OC)c3)C2)cc1 (some centres undefined)", "observed": 88}
{"compound": "COc1cc2c(cc1NS(=O)(=O)c1ccc(OCc3ccc(Br)cc3)cc1)CCN(C1CCC1)CC2", "observed": 94}
